Exercise: for every item that follows, state its recorded IC50.
Test system: 945468-187-T-J2-PDC spheroids viability
experimental protocol: Anticancer human tumor 945468-187-T-J2-PDC patient-derived rectal carcinoma cell line growth inhibition [PI3K]
applied conditions: curve of first compound; second compound 0.316 µM; spheroids with HUVEC and MSC

Kindly note the recorded IC50 for Cn1ncnc1[C@H]1c2n[nH]c(=O)c3cc(F)cc(c23)N[C@@H]1c1ccc(F)cc1 + Cc1nc(NC(=O)N2CCCC2C(N)=O)sc1-c1ccnc(C(C)(C)C(F)(F)F)c1 , which is > 100 nM

Kindly note the recorded IC50 for C=CC(=O)N1CCN(c2nc(=O)n(-c3c(C)ccnc3C(C)C)c3nc(-c4c(O)cccc4F)c(F)cc23)C(C)C1 (stereo not drawn) + COc1c(OCCCN2CCOCC2)ccc2c3n(c(=NC(=O)c4cnc(N)nc4)nc12)CCN3 , which is < 31.6 nM

Kindly note the recorded IC50 for Cn1cnc2c(F)c(Nc3ccc(Br)cc3Cl)c(C(=O)NOCCO)cc21 + CC(Nc1ncnc2nc[nH]c12)c1cc2cccc(Cl)c2c(=O)n1-c1ccccc1 , which is > 3000 nM

* * *

Exercise: for every item that follows, state its recorded viability, T/C.
Test system: 945468-187-T-J2-PDC spheroids viability
experimental protocol: Anticancer human tumor 945468-187-T-J2-PDC cell line growth inhibition [PI3K];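 note: spheroids exposed to compounds for seven days before reading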
applied conditions: second compound 3.16 µM; first compound 0.0316 µM; stronger effect = lower value; spheroids with HUVEC and MSC
Your answer should be a plain number; it is taken to be in %.

The reported 945468-187-T-J2-PDC spheroids viability viability, T/C of Cn1ncnc1[C@H]1c2n[nH]c(=O)c3cc(F)cc(c23)N[C@@H]1c1ccc(F)cc1 + Cc1nc(NC(=O)N2CCCC2C(N)=O)sc1-c1ccnc(C(C)(C)C(F)(F)F)c1 is 90.4

The reported 945468-187-T-J2-PDC spheroids viability viability, T/C of CC1(C)CCC(CN2CCN(c3ccc(C(=O)NS(=O)(=O)c4ccc(NCC5CCOCC5)c([N+](=O)[O-])c4)c(Oc4cnc5[nH]ccc5c4)c3)CC2)=C(c2ccc(Cl)cc2)C1 + Cc1nc(NC(=O)N2CCCC2C(N)=O)sc1-c1ccnc(C(C)(C)C(F)(F)F)c1 is 81.4

The reported 945468-187-T-J2-PDC spheroids viability viability, T/C of C=CC(=O)N1CCN(c2nc(=O)n(-c3c(C)ccnc3C(C)C)c3nc(-c4c(O)cccc4F)c(F)cc23)C(C)C1 (stereo not drawn) + Cc1nc(NC(=O)N2CCCC2C(N)=O)sc1-c1ccnc(C(C)(C)C(F)(F)F)c1 is 91.2

* * *

Test system: 945468-187-T-J2-PDC spheroids viability
experimental protocol: Anticancer human tumor 945468-187-T-J2-PDC cell line growth inhibition [PI3K];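 note: spheroids exposed to compounds for seven days before reading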
applied conditions: second compound 1 µM; first compound 0.3 µM; stronger effect = lower value; spheroids with HUVEC and MSC
Exercise: for every item that follows, state its recorded viability, T/C.
Your answer should be a plain number; it is taken to be in %.

The reported 945468-187-T-J2-PDC spheroids viability viability, T/C of Cn1cnc2c(F)c(Nc3ccc(Br)cc3Cl)c(C(=O)NOCCO)cc21 + COc1c(OCCCN2CCOCC2)ccc2c3n(c(=NC(=O)c4cnc(N)nc4)nc12)CCN3 is 11.3

The reported 945468-187-T-J2-PDC spheroids viability viability, T/C of Cn1cnc2c(F)c(Nc3ccc(Br)cc3Cl)c(C(=O)NOCCO)cc21 + CC(Nc1ccc2c(c1)OCCn1cc(N3C(=O)OCC3C(F)F)nc1-2)C(N)=O is 65.2

The reported 945468-187-T-J2-PDC spheroids viability viability, T/C of Cn1cnc2c(F)c(Nc3ccc(Br)cc3Cl)c(C(=O)NOCCO)cc21 + Cc1nc(NC(=O)N2CCCC2C(N)=O)sc1-c1ccnc(C(C)(C)C(F)(F)F)c1 is 76.6

The reported 945468-187-T-J2-PDC spheroids viability viability, T/C of Cn1cnc2c(F)c(Nc3ccc(Br)cc3Cl)c(C(=O)NOCCO)cc21 + CC(Nc1ncnc2nc[nH]c12)c1cc2cccc(Cl)c2c(=O)n1-c1ccccc1 is 88.3

* * *

Tested on: 945468-187-T-J2-PDC spheroids viability
experimental protocol: Anticancer human tumor 945468-187-T-J2-PDC cell line growth inhibition [PI3K];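 note: spheroids exposed to compounds for seven days before reading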
applied conditions: second compound 0.01 µM; first compound 10 µM; stronger effect = lower value; spheroids with HUVEC and MSC
The label met is reserved for viability, T/C strictly under 90%; not met covers values equal to or above it.

Input CC1(C)CCC(Nc2ncc(C(F)(F)F)c(-c3c[nH]c4c(P(C)(C)=O)c(C#N)ccc34)n2)CN1 (stereo unspecified) + COc1c(OCCCN2CCOCC2)ccc2c3n(c(=NC(=O)c4cnc(N)nc4)nc12)CCN3 ; condition: viability, T/C strictly below 90%. Does it hold? met

Input Cn1nccc1Nc1nccc(-c2ccn(C(CO)c3ccc(Cl)c(F)c3)c(=O)c2)n1 (stereo unspecified) + CC(Nc1ccc2c(c1)OCCn1cc(N3C(=O)OCC3C(F)F)nc1-2)C(N)=O ; condition: viability, T/C strictly below 90%. Does it hold? met

Input C=CC(=O)N1CCN(c2nc(=O)n(-c3c(C)ccnc3C(C)C)c3nc(-c4c(O)cccc4F)c(F)cc23)C(C)C1 (stereo unspecified) + COc1c(OCCCN2CCOCC2)ccc2c3n(c(=NC(=O)c4cnc(N)nc4)nc12)CCN3 ; condition: viability, T/C strictly below 90%. Does it hold? not met

Input CC(Cn1ccc(-c2ccc(C#N)c(Cl)c2)n1)NC(=O)c1cc(C(C)O)[nH]n1 (stereo unspecified) + COc1c(OCCCN2CCOCC2)ccc2c3n(c(=NC(=O)c4cnc(N)nc4)nc12)CCN3 ; condition: viability, T/C strictly below 90%. Does it hold? not met

Input CC(Cn1ccc(-c2ccc(C#N)c(Cl)c2)n1)NC(=O)c1cc(C(C)O)[nH]n1 (stereo unspecified) + CC(Nc1ccc2c(c1)OCCn1cc(N3C(=O)OCC3C(F)F)nc1-2)C(N)=O ; condition: viability, T/C strictly below 90%. Does it hold? not met

Input C#Cc1c(F)ccc2cc(O)cc(-c3ncc4c(N5CC6CCC(C5)N6)nc(OCC56CCCN5CC(F)C6)nc4c3F)c12 (stereo unspecified) + COc1c(OCCCN2CCOCC2)ccc2c3n(c(=NC(=O)c4cnc(N)nc4)nc12)CCN3 ; condition: viability, T/C strictly below 90%. Does it hold? not met

Input Cn1ncc(Cl)c1-c1cc(C(=O)NC(CN)Cc2cccc(F)c2)sc1Cl (stereo unspecified) + CC(Nc1ccc2c(c1)OCCn1cc(N3C(=O)OCC3C(F)F)nc1-2)C(N)=O ; condition: viability, T/C strictly below 90%. Does it hold? not met

Input CC(C)NCC(C(=O)N1CCN(c2ncnc3c2C(C)CC3O)CC1)c1ccc(Cl)cc1 (stereo unspecified) + COc1c(OCCCN2CCOCC2)ccc2c3n(c(=NC(=O)c4cnc(N)nc4)nc12)CCN3 ; condition: viability, T/C strictly below 90%. Does it hold? met

Input CCCS(=O)(=O)Nc1ccc(F)c(C(=O)c2c[nH]c3ncc(-c4ccc(Cl)cc4)cc23)c1F + CC(Nc1ccc2c(c1)OCCn1cc(N3C(=O)OCC3C(F)F)nc1-2)C(N)=O ; condition: viability, T/C strictly below 90%. Does it hold? met

Input C=CC(=O)N1CCN(c2nc(=O)n(-c3c(C)ccnc3C(C)C)c3nc(-c4c(O)cccc4F)c(F)cc23)C(C)C1 (stereo unspecified) + CC(Nc1ccc2c(c1)OCCn1cc(N3C(=O)OCC3C(F)F)nc1-2)C(N)=O ; condition: viability, T/C strictly below 90%. Does it hold? not met

Input CC(C)NCC(C(=O)N1CCN(c2ncnc3c2C(C)CC3O)CC1)c1ccc(Cl)cc1 (stereo unspecified) + CC(Nc1ccc2c(c1)OCCn1cc(N3C(=O)OCC3C(F)F)nc1-2)C(N)=O ; condition: viability, T/C strictly below 90%. Does it hold? not met

* * *

Exercise: for every item that follows, state its recorded viability, T/C.
Test system: 945468-187-T-J2-PDC spheroids viability
experimental protocol: Anticancer human tumor 945468-187-T-J2-PDC cell line growth inhibition [PI3K];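 note: spheroids exposed to compounds for seven days before reading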
applied conditions: second compound 0.316 µM; first compound 0.3 µM; stronger effect = lower value; spheroids with HUVEC and MSC
Your answer should be a plain number; it is taken to be in %.

Kindly note the recorded viability, T/C for Cn1cnc2c(F)c(Nc3ccc(Br)cc3Cl)c(C(=O)NOCCO)cc21 + CC(Nc1ccc2c(c1)OCCn1cc(N3C(=O)OCC3C(F)F)nc1-2)C(N)=O , which is 75.6

Kindly note the recorded viability, T/C for Cn1cnc2c(F)c(Nc3ccc(Br)cc3Cl)c(C(=O)NOCCO)cc21 + COc1c(OCCCN2CCOCC2)ccc2c3n(c(=NC(=O)c4cnc(N)nc4)nc12)CCN3 , which is 21.9

Kindly note the recorded viability, T/C for Cn1cnc2c(F)c(Nc3ccc(Br)cc3Cl)c(C(=O)NOCCO)cc21 + Cc1nc(NC(=O)N2CCCC2C(N)=O)sc1-c1ccnc(C(C)(C)C(F)(F)F)c1 , which is 75.1

Kindly note the recorded viability, T/C for Cn1cnc2c(F)c(Nc3ccc(Br)cc3Cl)c(C(=O)NOCCO)cc21 + CC(Nc1ncnc2nc[nH]c12)c1cc2cccc(Cl)c2c(=O)n1-c1ccccc1 , which is 91.8
